system: ACHN renal; experiment: NCI tumour cell line growth inhibition, 48 h
Each entry below carries its recorded GI50.

The examples below pair each entry with its known result.
>>> print(df.to_string())
                                   compound  observed_result
0  CNC(C)[C@H]1CCC2C3CCC4C[C@@H](N(C)C(=O)c5ccccc5)CC[C@]4(C)C3CC[C@@]21C (some centres undefined)          2.37 µM
1       CSC(=NC#N)S/C=C/C(=O)c1cccc2ccccc12          28.3 µM
2  C[CH2][Ge]([CH2]C)([CH2]C)[O]C(=O)C([O][Ge]([CH2]C)([CH2]C)[CH2]C)c1ccccc1 (centres undefined)            15 µM

Okay, now this compound:
Request: What value of GI50 has been reported for the following compound? O=c1oc2c(cc1-c1ccccc1)C(O)Oc1ccccc1-2 (centres undefined)
Result: 20.4 µM
